# experimental_system: MRP2 (Homo sapiens, UniProt Q92887)
# Sequence (Q92887 whole entry): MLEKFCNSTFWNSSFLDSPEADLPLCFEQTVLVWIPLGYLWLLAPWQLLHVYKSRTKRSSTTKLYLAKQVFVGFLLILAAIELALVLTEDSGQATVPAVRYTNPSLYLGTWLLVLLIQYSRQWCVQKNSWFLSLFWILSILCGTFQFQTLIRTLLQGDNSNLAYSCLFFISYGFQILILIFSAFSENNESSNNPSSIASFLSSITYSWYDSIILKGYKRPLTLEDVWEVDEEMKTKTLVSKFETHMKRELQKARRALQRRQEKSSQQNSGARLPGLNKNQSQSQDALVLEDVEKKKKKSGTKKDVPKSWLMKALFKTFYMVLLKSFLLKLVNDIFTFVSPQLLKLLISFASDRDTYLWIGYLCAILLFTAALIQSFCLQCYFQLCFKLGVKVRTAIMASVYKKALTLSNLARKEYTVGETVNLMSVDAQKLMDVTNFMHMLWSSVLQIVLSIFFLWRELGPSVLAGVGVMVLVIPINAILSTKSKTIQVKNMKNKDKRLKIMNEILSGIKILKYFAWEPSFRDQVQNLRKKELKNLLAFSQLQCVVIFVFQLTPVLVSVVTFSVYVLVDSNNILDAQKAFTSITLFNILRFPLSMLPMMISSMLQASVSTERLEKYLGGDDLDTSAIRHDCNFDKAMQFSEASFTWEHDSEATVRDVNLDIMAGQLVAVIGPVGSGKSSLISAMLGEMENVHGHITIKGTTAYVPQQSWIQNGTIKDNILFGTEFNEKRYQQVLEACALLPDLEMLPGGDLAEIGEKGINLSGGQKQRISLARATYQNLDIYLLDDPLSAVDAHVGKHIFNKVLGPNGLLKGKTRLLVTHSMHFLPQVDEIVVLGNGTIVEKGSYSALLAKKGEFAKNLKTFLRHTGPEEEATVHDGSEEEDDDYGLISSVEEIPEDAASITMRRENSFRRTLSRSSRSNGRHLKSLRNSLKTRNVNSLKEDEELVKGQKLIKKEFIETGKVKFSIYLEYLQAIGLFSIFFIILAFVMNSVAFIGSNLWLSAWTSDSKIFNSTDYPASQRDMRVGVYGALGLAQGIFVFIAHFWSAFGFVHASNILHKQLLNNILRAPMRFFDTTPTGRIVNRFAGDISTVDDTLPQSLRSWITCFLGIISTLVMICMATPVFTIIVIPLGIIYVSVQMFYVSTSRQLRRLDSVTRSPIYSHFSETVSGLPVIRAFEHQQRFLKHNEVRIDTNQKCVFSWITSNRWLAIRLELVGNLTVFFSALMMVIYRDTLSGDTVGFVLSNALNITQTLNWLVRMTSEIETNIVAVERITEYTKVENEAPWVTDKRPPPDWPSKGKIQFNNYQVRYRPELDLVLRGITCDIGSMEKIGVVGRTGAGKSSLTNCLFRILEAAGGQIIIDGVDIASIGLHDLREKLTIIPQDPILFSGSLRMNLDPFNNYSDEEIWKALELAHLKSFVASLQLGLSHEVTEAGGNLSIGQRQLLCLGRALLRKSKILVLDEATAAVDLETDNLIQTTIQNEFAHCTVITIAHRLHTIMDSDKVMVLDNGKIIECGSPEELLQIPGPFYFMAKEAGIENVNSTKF
# assay_remarks: Caco-2 transport of isoquercitrin in the presence of MRP2 inhibitor MK 571
# Format: in vitro ADME
# settings: human, Caco-2, with MK 571, 50 µM
assay_metric: efflux ratio at 4 h
Provide a numeric answer; units are not to be included.

## Task What measured efflux ratio at 4 h is associated with O=c1c(O[C@@H]2O[C@H](CO)[C@@H](O)[C@H](O)[C@H]2O)c(-c2ccc(O)c(O)c2)oc2cc(O)cc(O)c12 on MRP2 (Homo sapiens, UniProt Q92887)?
## Result 0.4
